Assay: Plasma concentrations and pharmacokinetic parameters of Compounds 1 and 2 in rats after oral Compound 1
Type: in vivo, rat
Stated conditions: po; rat plasma, single p.o. dose of Compound 1, 1.0 mg/kg
Metric name: Cmax (ng/mL)
Just the number please, in ng/mL, no unit attached.

Prompt line: Which Cmax is reported for this molecule? C[C@]12C[C@H](c3ccc(S(C)(=O)=O)cc3)C3=C4CC[C@@H](O)C=C4CC[C@H]3[C@@H]1CC[C@@]2(O)C(F)(F)C(F)(F)F
Response line: 3.36

---

Assay: Plasma concentrations of Compound 3 and its metabolite Compound 2 in rats
Assay type: in vivo, rat
Stated conditions: po; rat plasma, single p.o. 5 mg/kg of Compound 3, female rats
Metric name: AUC(0-inf) (ng·h/mL)
Give the quantity in ng·h/mL, number only.

Prompt line: Suppose we examine the compound C[C@]12C[C@H](c3ccc([S@](C)(=N)=O)cc3)C3=C4CCC(=O)C=C4CCC3C1CC[C@@]2(O)C(F)(F)C(F)(F)F (stereo partly shown) ; what AUC(0-inf) value has been reported?
Response line: 1240
